B1: r4_43_TrROS_Hall (parent)
chain: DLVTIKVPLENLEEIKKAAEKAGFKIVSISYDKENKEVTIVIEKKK

- Variants of: B1
- assay-details: folding stability dG (cDNA display proteolysis); higher = more stable
- details: PBS, room temperature
measure: folding stability dG

QUERY: Name the reported folding stability dG value associated with the variant DLVTIKVNLENLEEIKKAAEKAGFKIVSISYDKENKEVTIVIEKKK [P8N]
RESULT: 3.58 kcal/mol

QUERY: Would you kindly repeat that for DLVTIKVPLENLEEIKKAAEKAGFKIVSISYDKENKEVTIVLEKKK [I42L] ?
RESULT: 3.79 kcal/mol
